// note: Ki values for Tyrosine-protein kinase JAK2 (Homo sapiens, UniProt O60674) were reported in different studies

Worked examples follow.
INSERT INTO measurements (compound, data_value) VALUES
  ('CNC(=O)C(CC(F)(F)F)Nc1nc(-c2c[nH]c3ncncc23)ncc1F (centres unmarked)', '500 to 5000 nM'),
  ('N#Cc1cccc(F)c1-c1cc(-n2ccc(N3C[C@@H](O)[C@@H](O)C3)n2)c2c(n1)CNC2=O', '0.1 to 10 nM'),
  ('COC(=O)c1cc(N2CCC[C@@H]2C(=O)NCC(F)(F)F)nc(-c2c[nH]c3ncc(Cl)cc23)n1', '≥ 500 nM'),
  ('C=CCN(C(=O)c1ccc(-c2ncnc3[nH]ccc23)o1)[C@@H](C)c1ccccc1', '< 100 nM'),
  ('Cc1cc(Nc2cc(N3CCC3)nc(Sc3ccc(NC(=O)c4c(Cl)cccc4Cl)cc3)n2)n[nH]1', '330 nM'),
  ('C[C@H](Nc1cc(C(=O)N2CCC[C@H]2CO)nc(-c2c[nH]c3ncncc23)n1)C(=O)NCC(F)(F)F', '500 to 5000 nM'),
  ('O=C(NCC(F)(F)F)[C@H]1CCCN1c1ccnc(-c2c[nH]c3ncncc23)n1', '< 500 nM');

Proceeding to the next compound to report its Ki.
Bench note, Tyrosine-protein kinase JAK2 (Homo sapiens, UniProt O60674): [O-][n+]1ccc(C2Nc3ccccc3-c3ccnc4[nH]cc2c34)cc1 (centres unmarked) , Ki reads > 2500 nM

###

# literature pull: Tyrosine-protein kinase JAK2 (Homo sapiens, UniProt O60674) Ki

INSERT INTO assay_data (compound, data_value) VALUES
  ('C[C@@](O)(C(=O)O)c1ccc(Nc2nc(-c3c(F)cccc3F)nc3c2C(=O)NC3)cc1', '0.1 to 1 µM'),
  ('CCC(=O)Nc1nc(N[C@@H](C)c2ccc(F)cc2F)cc(-c2cnn3cccnc23)n1', '< 0.01 µM'),
  ('CNC(=O)c1cc(N2CCC[C@@H]2C(=O)NCC(F)(F)F)nc(-c2c[nH]c3ncc(Cl)cc23)n1', '≥ 0.5 µM'),
  ('COc1ccc(C2Nc3ccccc3-c3ccnc4[nH]cc2c34)cc1F (centres unmarked)', '< 0.25 µM'),
  ('N#Cc1cccc(F)c1-c1cc(-n2ccc(N3CCC[C@](N)(C(F)(F)F)C3)n2)c2c(n1)CNC2=O', '0.0001 to 0.01 µM');

Hey, quick one: what's Ki for each of these?
1. N#Cc1cccc(F)c1-c1cc(-n2ccc(N3CC[C@]4(CCNC4=O)C3)n2)c2c(n1)CNC2=O
2. [2H]C1([2H])N(c2ccn(-c3cc(-c4c(F)cccc4C#N)nc4c3C(=O)NC4)n2)C([2H])([2H])C([2H])(O)C1([2H])[2H] (centres unmarked)
3. CCNC(=O)C(C)(O)c1ccc(Nc2nc(-c3c(F)cccc3F)nc3c2C(=O)NC3)cc1 (centres unmarked)

1: 0.0001 to 0.01 µM; 2: 0.0001 to 0.01 µM; 3: 0.1 to 1 µM

###

Ki for UniProtKB O60674, merged from several publications.

Previously resolved entries follow.
INSERT INTO assay_data (compound, quantity_kind, data_value) VALUES
  ('Fc1cc(F)c(C2Nc3ccccc3-c3ccnc4[nH]cc2c34)cc1F (centres unmarked)', 'Ki', '< 0.25 µM'),
  ('CC(C)CN(CCC(F)(F)F)C(=O)c1cc(-c2ncnc3[nH]cc(Cl)c23)c[nH]1', 'Ki', '< 0.1 µM'),
  ('FC(F)(F)c1ccc(/C=C/c2ncnc3[nH]ccc23)cc1', 'Ki', '< 0.5 µM'),
  ('Fc1cccc(Cl)c1C1Nc2ccccc2-c2ccnc3[nH]cc1c23 (centres unmarked)', 'Ki', '0.25 to 2.5 µM');

Required: Ki, one value per compound below.
1. N#Cc1cccc(F)c1-c1cc(-c2ccn([C@@H]3COC[C@@H]3O)n2)c2c(n1)CNC2=O
2. N#Cc1cccc(F)c1-c1cc(-n2ccc(N3CC[C@@H](C#N)[C@H](O)C3)n2)c2c(n1)CNC2=O
3. CC(C)CN(CCC(F)(F)F)C(=O)c1cc(-c2ncnc3[nH]ccc23)co1
4. CNCCOc1nc(N[C@@H](C)c2ccc(F)cc2F)cc(-c2cnn3cccnc23)n1

["0.1 to 1 µM", "0.0001 to 0.01 µM", "0.1 to 0.5 µM", "< 0.01 µM"]

###

Literature compilation of Ki measurements on UniProt:O60674.

Example molecules with recorded Ki:
INSERT INTO measurements (molecule, data_value) VALUES
  ('CCC(=O)Nc1ccc(Sc2nc(Nc3cc(C4CC4)[nH]n3)cc(N3CC(O)(C4CC4)C3)n2)cc1', '23 nM'),
  ('CN(CC(F)(F)F)C(=O)c1cc(-c2ncnc3[nH]ccc23)c[nH]1', '< 100 nM'),
  ('CC(=O)NC1CCCN(c2ccn(-c3cc(-c4c(F)cccc4C#N)nc4c3C(=O)NC4)n2)C1 (centres unmarked)', '0.1 to 10 nM'),
  ('N#CCC(=O)N1CC=C(c2cccc(-c3c[nH]c4ncncc34)n2)CC1', '< 500 nM'),
  ('CN(c1nc(-c2c[nH]c3ncncc23)ncc1F)C1(C(=O)NCC(F)(F)F)CC1', '500 to 5000 nM'),
  ('COc1cc(C2Nc3ccccc3-c3ccnc4[nH]cc2c34)cc(Cl)c1O (centres unmarked)', '< 250 nM');

For each of the molecules below, state Ki.
1. C[C@H](Nc1cc(OC2CCOC2)nc(-c2c[nH]c3ncncc23)n1)C(=O)NCC(F)(F)F (some centres unmarked)
2. N#Cc1cccc(F)c1-c1cc(Nc2ccc(N3CC[C@]4(C[C@@H](O)CO4)C3)cn2)c2c(n1)CNC2=O
3. CC(C)[C@@H](Nc1cc(-c2cnn3cccnc23)ncn1)c1ccc(F)cc1F
4. Cc1ccc(C2C(=O)Nc3ccccc3-c3ncnc4[nH]cc2c34)cc1 (centres unmarked)
5. O=C(Nc1nc(-c2ncnc3[nH]ccc23)cs1)C(O)C(F)(F)F (centres unmarked)
6. N#Cc1cccc(F)c1-c1cc(-n2ccc(N3CCC[C@H](C(=O)N4CCCC4)C3)n2)c2c(n1)CNC2=O
7. CO[C@@H]1CN(c2ccn(-c3cc(-c4c(F)cccc4C#N)nc4c3C(=O)NC4)n2)CC[C@H]1O

1: > 5000 nM; 2: 10 to 100 nM; 3: 10 to 100 nM; 4: < 250 nM; 5: < 100 nM; 6: 0.1 to 10 nM; 7: 0.1 to 10 nM

Provide the reported Ki of each entry below, same order.
1. O=C(Nc1nc(-c2ncnc3[nH]ccc23)cs1)C1CCCC1O (centres unmarked)
2. CC(C)c1csc(-c2cc(-c3c(F)cccc3F)nc3c2C(=O)NC3)n1

1: < 100 nM; 2: ≥ 1000 nM

Hi team, please reply with Ki for each item in this list.
1. Oc1ccc(C2Nc3ncccc3-c3ccnc4[nH]cc2c34)c(Cl)c1 (centres unmarked)
2. O=C1NCc2nc(-c3c(F)cccc3F)cc(Nc3ccc(N4CCC5(CC4)OCCO5)cn3)c21
3. C#CCOc1nc(N[C@@H](C)c2ccc(F)cc2)cc(-c2c(N)nn3cccnc23)n1
4. N#Cc1cccc(F)c1-c1cc(Nc2ccc(N3CCC4(C[C@H](O)CO4)C3)cn2)c2c(n1)CNC2=O (stereo in doubt)

["< 250 nM", "10 to 100 nM", "< 10 nM", "10 to 100 nM"]

###

Assay read-out Ki on Tyrosine-protein kinase JAK2 (Homo sapiens, UniProt O60674); records merged from the literature.

INSERT INTO results (molecule, quantity_kind, data_value) VALUES
  ('CC(C)(Nc1nc(-c2c[nH]c3ncncc23)ncc1F)C(=O)NCC(F)(F)F', 'Ki', '< 500 nM');

Hi! Can you tell me Ki for each of these molecules?
1. O=C(c1ccc(-c2ncnc3[nH]ccc23)o1)N(CC1CCC1)CC(F)(F)F
2. O=C(O)c1cc(C2Nc3ccccc3-c3ccnc4[nH]cc2c34)ccc1O (stereo not shown)
3. C=Cc1ncnc2[nH]ccc12
4. C[C@H](Nc1cc(-c2cnn3cccnc23)nc(OCCN2CCCC2)n1)c1ccc(F)cc1F
5. Cc1cc(Nc2cc(N3CC(O)(C4CC4)C3)nc(Sc3ccc(NC(=O)C4CC4)cc3)n2)n[nH]1
6. CC(CC(=O)Nc1nc(-c2ncnc3[nH]ccc23)cs1)CC(C)(C)C (stereo not shown)
7. O=C(NCC(F)(F)F)C1COCCN1c1cnc(-c2c[nH]c3ncncc23)nc1 (stereo not shown)

1. < 100 nM
2. > 2500 nM
3. 500 to 5000 nM
4. < 10 nM
5. 41 nM
6. < 100 nM
7. 500 to 5000 nM
